Origin of measurements: the supplement of paper PMC11451515

Exercise: for every item that follows, state its recorded cell viability.
Test system: NOMO1
Assay: cell viability relative to DMSO control; higher = less cytotoxic
Details: HPLM + 10% dialyzed FBS; 48 h; 46.1 µM
Answers are plain numbers, in %.

C#CCN[C@@H]1CCc2ccccc21.CS(=O)(=O)O : 43.2
Cc1c[nH]c(-c2cnc(NCCNc3ccc(C#N)cn3)nc2-c2ccc(Cl)cc2Cl)n1 : 57.7
NC(=O)Nc1cc(-c2cccc(F)c2)sc1C(=O)N[C@H]1CCCNC1 : 26.2
CC/1=C(\O)C(=O)\C=C2/C1=C/C=C3\[C@@]2(C)CC[C@@]4(C)[C@@H]5C[C@@](C)(CC[C@]5(C)CC[C@]34C)C(O)=O : 8.32

For every item in the list below, what is its measured cell viability?
1. Cc1cccc(/C=N/Nc2cc(N3CCOCC3)nc(OCCc3ccccn3)n2)c1
2. O.O.CCN1CCN(C(=O)N[C@H](C(=O)N[C@H]2[C@@H]3SC\C(=C(/N3C2=O)C(O)=O)CSC4=NN=N[N]4C)C5=CC=C(O)C=C5)C(=O)C1=O
3. CCOC(=O)\C1=C\[C@@H](OC(CC)CC)[C@H](NC(C)=O)[C@@H](N)C1
4. CC(O)C1C2C(C)\C(=C(/N2C1=O)C(O)=O)SC3CNC(C3)C(=O)N(C)C (stereo not given)
5. C=CCc1ccc(O)c(-c2ccc(O)c(CC=C)c2)c1
6. C1CCN2C[C@H]3C[C@H](\C=C/4CCCN[C@@H]34)[C@H]2C1
7. COc1cc(/C=C/C(=O)O)ccc1O

1: 24.3; 2: 115; 3: 86.4; 4: 88.7; 5: 88.7; 6: 92.8; 7: 101
